molecular target: Isocitrate dehydrogenase [NADP] cytoplasmic (Homo sapiens); experiment: PubChem AID 624101; conditions: IDH1 R132H reductase, diaphorase/resazurin fluorescence, 60 min; at 10 µM; active compounds read high;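 further: 0% = DMSO and 100% = no enzyme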
The campaign covered roughly 70,000 compounds. About 120 (0.17%) were called active. The entries come from a sample that favours actives as a whole.
// reported inhibition per item
MEASURE_NAME: inhibition (%)

>  <SMILES_NOTATION>
CO[C@@H]1CN(C)C(=O)c2cc(NS(=O)(=O)c3ccccc3C)ccc2OC[C@@H](C)N(S(C)(=O)=O)C[C@@H]1C

>  <ASSAY_TARGET>
Isocitrate dehydrogenase [NADP] cytoplasmic (Homo sapiens)

>  <EXPERIMENTAL_RESULT>
-0.22

$$$$
>  <SMILES_NOTATION>
COc1cccc(-c2ccc3c(c2)O[C@H](CN(C)C(=O)C2CCOCC2)[C@H](C)CN([C@H](C)CO)S3(=O)=O)c1

>  <ASSAY_TARGET>
Isocitrate dehydrogenase [NADP] cytoplasmic (Homo sapiens)

>  <EXPERIMENTAL_RESULT>
-1.58

$$$$
>  <SMILES_NOTATION>
Cc1ccc(-c2ccc3c(c2)O[C@@H](CN(C)C(=O)CC2CC2)[C@@H](C)CN([C@@H](C)CO)S3(=O)=O)cc1

>  <ASSAY_TARGET>
Isocitrate dehydrogenase [NADP] cytoplasmic (Homo sapiens)

>  <EXPERIMENTAL_RESULT>
-0.129

$$$$
>  <SMILES_NOTATION>
CO[C@H]1CN(C)C(=O)c2ccc(NC(=O)c3ccc4c(c3)OCO4)cc2OC[C@@H](C)NC[C@@H]1C

>  <ASSAY_TARGET>
Isocitrate dehydrogenase [NADP] cytoplasmic (Homo sapiens)

>  <EXPERIMENTAL_RESULT>
0.0335

$$$$
>  <SMILES_NOTATION>
C[C@@H]1CN([C@H](C)CO)S(=O)(=O)c2ccc(C3=CCCC3)cc2O[C@H]1CN(C)C(=O)c1ccccc1

>  <ASSAY_TARGET>
Isocitrate dehydrogenase [NADP] cytoplasmic (Homo sapiens)

>  <EXPERIMENTAL_RESULT>
1.4

$$$$
>  <SMILES_NOTATION>
O=C(C[C@@H]1CC[C@@H](NC(=O)C2CCOCC2)[C@H](CO)O1)Nc1ccc(-c2ccccc2)cc1

>  <ASSAY_TARGET>
Isocitrate dehydrogenase [NADP] cytoplasmic (Homo sapiens)

>  <EXPERIMENTAL_RESULT>
0.222

$$$$
>  <SMILES_NOTATION>
CO[C@@H]1CN(C)C(=O)c2ccc(NS(C)(=O)=O)cc2OC[C@H](C)NC[C@H]1C

>  <ASSAY_TARGET>
Isocitrate dehydrogenase [NADP] cytoplasmic (Homo sapiens)

>  <EXPERIMENTAL_RESULT>
0.02

$$$$
>  <SMILES_NOTATION>
O=C(C[C@H]1CC[C@H](NC(=O)C2CCC2)[C@@H](CO)O1)Nc1nccs1

>  <ASSAY_TARGET>
Isocitrate dehydrogenase [NADP] cytoplasmic (Homo sapiens)

>  <EXPERIMENTAL_RESULT>
0.192

$$$$
>  <SMILES_NOTATION>
CO[C@@H]1CN(C)C(=O)c2ccc(NS(C)(=O)=O)cc2OC[C@H](C)N(C(=O)C2CC2)C[C@H]1C

>  <ASSAY_TARGET>
Isocitrate dehydrogenase [NADP] cytoplasmic (Homo sapiens)

>  <EXPERIMENTAL_RESULT>
-0.15

$$$$
>  <SMILES_NOTATION>
CO[C@@H]1CN(C)C(=O)c2cc(NC(=O)C3CC3)ccc2OC[C@H](C)N(C(=O)CN2CCOCC2)C[C@@H]1C

>  <ASSAY_TARGET>
Isocitrate dehydrogenase [NADP] cytoplasmic (Homo sapiens)

>  <EXPERIMENTAL_RESULT>
0.377

$$$$
>  <SMILES_NOTATION>
Cc1ccc(S(=O)(=O)NCC[C@@H]2CC[C@H](NC(=O)c3ccccn3)[C@H](CO)O2)cc1

>  <ASSAY_TARGET>
Isocitrate dehydrogenase [NADP] cytoplasmic (Homo sapiens)

>  <EXPERIMENTAL_RESULT>
-0.387

$$$$
>  <SMILES_NOTATION>
CCC(=O)Nc1ccc2c(c1)C(=O)N(C)C[C@H](OC)[C@H](C)CN(C(=O)C1CCC1)[C@@H](C)CO2

>  <ASSAY_TARGET>
Isocitrate dehydrogenase [NADP] cytoplasmic (Homo sapiens)

>  <EXPERIMENTAL_RESULT>
0.203

$$$$
>  <SMILES_NOTATION>
COc1ccccc1S(=O)(=O)N[C@@H]1C=C[C@H](CC(=O)N2CCN(C)CC2)O[C@@H]1CO

>  <ASSAY_TARGET>
Isocitrate dehydrogenase [NADP] cytoplasmic (Homo sapiens)

>  <EXPERIMENTAL_RESULT>
0.0315

$$$$
>  <SMILES_NOTATION>
CO[C@H]1CN(C)C(=O)c2cc(NC(=O)C3CC3)ccc2OC[C@@H](C)NC[C@H]1C

>  <ASSAY_TARGET>
Isocitrate dehydrogenase [NADP] cytoplasmic (Homo sapiens)

>  <EXPERIMENTAL_RESULT>
-0.162

$$$$
>  <SMILES_NOTATION>
COc1cccc(CNC(=O)c2cc3c(c(-c4cccc(-c5ccc(C#N)cc5)c4)n2)[C@@H](CCO)N([S@](=O)C(C)(C)C)C3)c1

>  <ASSAY_TARGET>
Isocitrate dehydrogenase [NADP] cytoplasmic (Homo sapiens)

>  <EXPERIMENTAL_RESULT>
0.432

$$$$
>  <SMILES_NOTATION>
Cc1ccc(S(=O)(=O)NCC[C@H]2CC[C@@H](NC(=O)C3CCOCC3)[C@@H](CO)O2)cc1

>  <ASSAY_TARGET>
Isocitrate dehydrogenase [NADP] cytoplasmic (Homo sapiens)

>  <EXPERIMENTAL_RESULT>
0.168

$$$$
>  <SMILES_NOTATION>
CN1CCN(C(=O)C[C@H]2C[C@@H]3c4cc(NC(=O)NC5CCCC5)ccc4O[C@@H]3[C@@H](CO)O2)CC1

>  <ASSAY_TARGET>
Isocitrate dehydrogenase [NADP] cytoplasmic (Homo sapiens)

>  <EXPERIMENTAL_RESULT>
0.0955

$$$$
>  <SMILES_NOTATION>
CO[C@@H]1CN(C)C(=O)c2ccc(NS(=O)(=O)c3ccc(Cl)cc3)cc2OC[C@H](C)N(C(=O)NC(C)C)C[C@H]1C

>  <ASSAY_TARGET>
Isocitrate dehydrogenase [NADP] cytoplasmic (Homo sapiens)

>  <EXPERIMENTAL_RESULT>
0.21

$$$$
>  <SMILES_NOTATION>
O=C(N[C@H]1CC[C@H](CCn2cc(C3(O)CCCC3)nn2)O[C@H]1CO)C1CC1

>  <ASSAY_TARGET>
Isocitrate dehydrogenase [NADP] cytoplasmic (Homo sapiens)

>  <EXPERIMENTAL_RESULT>
-0.0085

$$$$
>  <SMILES_NOTATION>
Cc1noc(C)c1NC(=O)N(C)C[C@H]1Oc2ccc(NS(=O)(=O)c3ccc(Cl)cc3)cc2CC(=O)N([C@H](C)CO)C[C@@H]1C

>  <ASSAY_TARGET>
Isocitrate dehydrogenase [NADP] cytoplasmic (Homo sapiens)

>  <EXPERIMENTAL_RESULT>
0.108

$$$$
>  <SMILES_NOTATION>
C/C=C/c1cnc2c(c1)C(=O)N([C@@H](C)CO)C[C@@H](C)[C@@H](CN(C)C(=O)c1cnccn1)O2

>  <ASSAY_TARGET>
Isocitrate dehydrogenase [NADP] cytoplasmic (Homo sapiens)

>  <EXPERIMENTAL_RESULT>
-1.79

$$$$
>  <SMILES_NOTATION>
O=C(N[C@H]1CC[C@@H](CCNS(=O)(=O)c2ccccc2)O[C@H]1CO)c1cccnc1

>  <ASSAY_TARGET>
Isocitrate dehydrogenase [NADP] cytoplasmic (Homo sapiens)

>  <EXPERIMENTAL_RESULT>
-0.222

$$$$
>  <SMILES_NOTATION>
O=C(Nc1ccc2c(c1)[C@@H]1C[C@H](CC(=O)N3CCOCC3)O[C@@H](CO)[C@@H]1O2)C1CCOCC1

>  <ASSAY_TARGET>
Isocitrate dehydrogenase [NADP] cytoplasmic (Homo sapiens)

>  <EXPERIMENTAL_RESULT>
-1

$$$$
>  <SMILES_NOTATION>
CCNC(=O)C[C@@H]1CC[C@H](NC(=O)NC2CCCCC2)[C@H](CO)O1

>  <ASSAY_TARGET>
Isocitrate dehydrogenase [NADP] cytoplasmic (Homo sapiens)

>  <EXPERIMENTAL_RESULT>
0.102

$$$$
>  <SMILES_NOTATION>
COCC(=O)Nc1ccc2c(c1)OC[C@@H](C)N(C(=O)c1cnccn1)C[C@H](C)[C@@H](OC)CN(C)C2=O

>  <ASSAY_TARGET>
Isocitrate dehydrogenase [NADP] cytoplasmic (Homo sapiens)

>  <EXPERIMENTAL_RESULT>
0.0305

$$$$
>  <SMILES_NOTATION>
CO[C@@H]1CN(C)C(=O)c2cc(NC(=O)C3CCOCC3)ccc2OC[C@H](C)N(Cc2cccnc2)C[C@H]1C

>  <ASSAY_TARGET>
Isocitrate dehydrogenase [NADP] cytoplasmic (Homo sapiens)

>  <EXPERIMENTAL_RESULT>
-0.057

$$$$
>  <SMILES_NOTATION>
C[C@@H]1CN([C@@H](C)CO)S(=O)(=O)c2ccc(C#Cc3ccncc3)cc2O[C@@H]1CN(C)S(=O)(=O)c1ccccc1

>  <ASSAY_TARGET>
Isocitrate dehydrogenase [NADP] cytoplasmic (Homo sapiens)

>  <EXPERIMENTAL_RESULT>
-0.653

$$$$
>  <SMILES_NOTATION>
CCCNC(=O)Nc1ccc2c(c1)C(=O)N(C)C[C@@H](OC)[C@@H](C)CN(C)[C@@H](C)CO2

>  <ASSAY_TARGET>
Isocitrate dehydrogenase [NADP] cytoplasmic (Homo sapiens)

>  <EXPERIMENTAL_RESULT>
-0.291

$$$$
>  <SMILES_NOTATION>
CO[C@@H]1CN(C)C(=O)c2ccc(NC(=O)C3CCCCC3)cc2OC[C@@H](C)N(Cc2nccs2)C[C@@H]1C

>  <ASSAY_TARGET>
Isocitrate dehydrogenase [NADP] cytoplasmic (Homo sapiens)

>  <EXPERIMENTAL_RESULT>
0.03

$$$$
>  <SMILES_NOTATION>
COc1ccc(-c2cn(CC[C@H]3CC[C@@H](N)[C@H](CO)O3)nn2)cc1

>  <ASSAY_TARGET>
Isocitrate dehydrogenase [NADP] cytoplasmic (Homo sapiens)

>  <EXPERIMENTAL_RESULT>
0.0195

$$$$
>  <SMILES_NOTATION>
O=C(N[C@@H]1CC[C@@H](CCNS(=O)(=O)c2ccccc2Cl)O[C@@H]1CO)c1ccccc1

>  <ASSAY_TARGET>
Isocitrate dehydrogenase [NADP] cytoplasmic (Homo sapiens)

>  <EXPERIMENTAL_RESULT>
-0.485

$$$$
>  <SMILES_NOTATION>
CO[C@@H]1CN(C)C(=O)c2cc(NS(=O)(=O)CC(F)(F)F)ccc2OC[C@@H](C)N(Cc2ccccn2)C[C@H]1C

>  <ASSAY_TARGET>
Isocitrate dehydrogenase [NADP] cytoplasmic (Homo sapiens)

>  <EXPERIMENTAL_RESULT>
0.0375

$$$$
